Numbers sourced from PubChem BioAssay (NCI).

System: CCRF-CEM leukemia
Test: NCI-60 one-dose screen, 48 h
Conditions: 10 µM
Compounds without any hit were thinned out: in the full panel of roughly 83,000, 20% have a hit. Active and inactive are the calls of the source. Rule for the calls: active = growth percent below 10; inactive = the rest.
Reply using exactly one outcome from active, inactive

- MOLECULE: "COc1ccc(-c2nn(-c3cccc(Cl)c3)cc2-c2c(C#N)c(=O)n3[nH]c(-c4ccccc4)nc3c2C#N)cc1"
  TEST_TARGET: "CCRF-CEM leukemia"
  CLASS_NAME: "inactive"
- MOLECULE: "Cc1cc(CC(C)CC(C)(C)C)n(O)c(=O)c1 (centres undefined) (tested in a mixture with another compound)"
  TEST_TARGET: "CCRF-CEM leukemia"
  CLASS_NAME: "inactive"
- MOLECULE: "COc1cc2cc(Oc3ccc(NC(=O)c4cccc(C(F)(F)F)c4)cc3)c(C)nc2cc1OC"
  TEST_TARGET: "CCRF-CEM leukemia"
  CLASS_NAME: "inactive"
- MOLECULE: "CCOC(=O)c1cc(C(=O)c2cc(OC)cc(OC)c2)n2ncc3ccccc3c12"
  TEST_TARGET: "CCRF-CEM leukemia"
  CLASS_NAME: "inactive"
- MOLECULE: "CCOc1ccccc1/C=N/N1CCCCCC1"
  TEST_TARGET: "CCRF-CEM leukemia"
  CLASS_NAME: "inactive"
- MOLECULE: "c1ccc(CSc2ncccc2-c2nnc(SCCN3CCOCC3)o2)cc1"
  TEST_TARGET: "CCRF-CEM leukemia"
  CLASS_NAME: "inactive"

[in] Please indicate how the test categorized CC(=O)[C@@]12O[C@](C)(c3ccccc3)O[C@@H]1CC1C3CCC4=CC(=O)CC[C@]4(C)C3CC[C@@]12C (some centres undefined) .
[out] inactive

[in] Please indicate how the test categorized CCN1CC(CCN2CCOCC2)C(C(c2ccccc2)c2ccccc2)C1=O (centres undefined) .
[out] inactive

###

Provide the reported growth of each item.
System: HCC-2998 colon
Test: NCI-60 one-dose screen, 48 h (100 = growth as untreated, 0 = no growth, -100 = all killed)
Details: 10 µM
Compounds without any hit were thinned out: in the full panel of roughly 83,000, 20% have a hit.
Answers are plain numbers, in %.

Some compounds with recorded growth:
- STRUCTURE_NOTATION: "Oc1ccc(-c2[nH]c3ccccc3c2-c2nc3ccccc3o2)cc1"
  TEST_TARGET: "HCC-2998 colon"
  growth (%): 58.5
- STRUCTURE_NOTATION: "COc1cc2cc(Oc3ccc(NC(=O)c4ccc(Cl)c(C(F)(F)F)c4)cc3)c(C)nc2cc1OC"
  TEST_TARGET: "HCC-2998 colon"
  growth (%): 41.3

Okay, here is my list. What is growth for each of these?
1. Cc1c(Cl)cccc1NC(=O)CN1CCOCC1
2. N#Cc1ccc(C(=O)CSc2nccc(Nc3ccc(C(=O)O)cc3)n2)cc1
3. Cc1nn(-c2ccc(-c3ccc(OC(F)(F)F)cc3)cc2)c2nc(Cc3ccccc3)nc(N)c12
4. CCOC(=O)C(C)(c1ccccc1)c1ccccc1
5. CS(=O)(=O)c1nccc(-c2c(-c3cccc(OCCc4ccccc4)c3)nc3sccn23)n1
6. CC(C)CCN(CCC(C)C)CC(=O)Nc1ccc(S(=O)(=O)c2ccc(NC(=O)CN(CCC(C)C)CCC(C)C)cc2)cc1

[out]
1. 103
2. 100
3. 77.2
4. 109
5. 109
6. 95.8

Okay, here is my list. What is growth for each of these?
1. Oc1ccc(/C=N/N=C2c3ccccc3-c3ccccc32)c(O)c1
2. Cc1ccc(C2=NN(c3ccc(S(C)(=O)=O)cc3)C(=O)CC2)cc1

[out]
80.9
47.2
